TESTED_ON: T1, RSV prefusion F (preF), subtype B (respiratory syncytial virus subtype B)
T1 construct: also called Prefusion subtype B
MEASUREMENT_DESCRIPTION: BLI, IgG
pKd: −log10 of the molar value.

BINDER	pKd
ADI-24861 (antibody, V domains shown, full-length IgG) VH: QVQLVQSGGGLVKPGGSLRLSCAASGFTFSSYSMNWVRQAPGKGLEWVSSISGGSSYIYYADSVKGRFTISRDNAKNSLYLQMNSLRAEDTAVYYCAREAYYYDSSGLKWFDPWGQGTLVTVSS VL: QSVLTQPPSVSGAPGQRVTISCTGSSSNIGAGYDVHWYQQLPGTAPKLLIYGNSNRPSGVPDRFSGSKSGTSASLAITGLQAEDEADYYCQSYDSSLGWVFGGGTKLTVL	9.34
ADI-19440 (antibody, V domains shown, full-length IgG) VH: EVQLVESGGGLVQPGGSLRLSCAASGFTFSSYSMNWVRQAPGKGLEWVSYISSSSSTIYYADSVKGRFTISRDNAKNSLYLQMNSLRAEDTAVYYCAREGYSGSYGYYFDYWGQGTLVTVSS VL: QSVLTQPPSVSGAPGQRVTISCTGSSSNIGAGYDVHWYQQLPGTAPKLLIYGNSNRPSGVPDRFSGSKSGTSASLAITGLQAEDEADYYCQSYDSSLSGSVFGTGTKLTVL	7.84
ADI-19458 (antibody, V domains shown, full-length IgG) VH: EVQLVESGGGRVKPGGSLRLSCAASGFTFRSYSMNWVRQAPGKGLEWVSSISSSSSYINYADSVKGRFTISRDNAKNSLYLQMNSLRAEDTAVYYCARDGSGMTIFGVVIDYWGQGTLVTVSS VL: QSVLTQPPSVSGAPGQRVTISCTGSSSNIGAGYDVHWYQQLPGTAPKLLIYGNSNRPSGVPDRFSGSKSGTSASLAITGLQAEDEADYYCQSYDRSLTVVFGGGTKLTVL	9.61
ADI-24832 (antibody, V domains shown, full-length IgG) VH: EVQLVESGGGLVKPGGSLRLSCAASGFTFSSYSMNWVRQAPGKGLEWVSSISASSSYIFYSDLVKGRFTISRDNAKNSLYLQMNSLRAEDTAVYYCARAGYYYGSGSYYVDYWGQGTLVTVSS VL: QSVLTQPPSVSGAPGQRVAISCTGSSSNIGAGYDVHWYQQLPGTAPKLLIYGNSNRPSGVPDRFSGSKSGTSASLAITGLQAEDEADYYCQSYGSSLSGWVFGGGTKLTVL	8.71
ADI-14391 (antibody, V domains shown, full-length IgG; also called Ab 58) VH: QVQLVESGGGLVQPGGSLRLSCAAAGFSFSNYAMSWVRQAPGKGLEWVAVISGNAGSTYYAESVKGRFTISRDNSKNTLHLQMNSLRGEDTAVYYCAKPPGIAVAGEYYWYFDLWGRGTLVTVSS VL: QVQLMQPPSVSVSPGQTARITCSGDALPRENAYWYQQKSGQAPVLVIYEDSKRPSGIPERFSGSSSGTMATLTITGAQVEDEADYYCYSTDTSAYHWVFGGGTKLTVL	8.27
